# experimental system: Human uPA (H99A in medium) (Homo sapiens, UniProt P00749, H272A)
# assay comment: Ki determination, chromogenic substrate cleavage
# reported conditions: read-out: Ki Mean ± SD (n)
pKi: −log10 of the molar value.
measured property: pKi

> print(dat)
                                   molecule  numeric.result
1  CCOC(=O)N1CCN(C(=O)[C@H](Cc2cccc(C(=N)N)c2)NS(=O)(=O)c2c(C(C)C)cc(C(C)C)cc2C(C)C)CC1 [WX-UK1]            4.85

---

# experimental system: Human Plasma Kallikrein (Homo sapiens, UniProt P03952)
# Sequence (P03952 20-638): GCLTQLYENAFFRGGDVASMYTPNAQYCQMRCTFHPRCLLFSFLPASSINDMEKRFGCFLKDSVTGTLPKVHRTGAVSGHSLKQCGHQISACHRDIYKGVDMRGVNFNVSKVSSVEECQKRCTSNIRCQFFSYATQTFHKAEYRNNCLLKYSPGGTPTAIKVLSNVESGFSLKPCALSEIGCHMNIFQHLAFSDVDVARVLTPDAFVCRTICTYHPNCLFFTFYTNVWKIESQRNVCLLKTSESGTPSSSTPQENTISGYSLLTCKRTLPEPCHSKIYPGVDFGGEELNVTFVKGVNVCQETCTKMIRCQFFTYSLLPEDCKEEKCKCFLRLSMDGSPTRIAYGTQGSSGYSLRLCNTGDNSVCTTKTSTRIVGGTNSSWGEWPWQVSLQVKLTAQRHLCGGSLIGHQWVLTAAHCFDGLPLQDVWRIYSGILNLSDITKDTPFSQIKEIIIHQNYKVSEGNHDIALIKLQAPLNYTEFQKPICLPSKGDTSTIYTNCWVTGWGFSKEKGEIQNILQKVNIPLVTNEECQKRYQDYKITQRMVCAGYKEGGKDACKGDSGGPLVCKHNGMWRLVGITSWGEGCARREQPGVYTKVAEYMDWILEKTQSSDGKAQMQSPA
# assay comment: Ki determination, chromogenic substrate cleavage
# reported conditions: read-out: Ki Mean ± SD (n)
pKi: −log10 of the molar value.
measured property: pKi

> print(dat)
                           structure.string                       experimental.system  numeric.result
1  CCOC(=O)N1CCN(C(=O)[C@H](Cc2cccc(C(=N)N)c2)NS(=O)(=O)c2c(C(C)C)cc(C(C)C)cc2C(C)C)CC1  Human Plasma Kallikrein (Homo sapiens, UniProt P03952)            4.59
